# method_summary: sensitizers of A549 cells to miR-34 induction, primary screen, imaging, A549 dox-inducible miR-34, nuclei and caspase counts (AID 1347080); also: test concentration not given here
# protocol_conditions: A549 miR-34 inducible, Hoechst nuclei count, 48 h; measured here: total cells with miR-34 induction; stronger effect = lower value
What cell count was measured for each of the following?
Write the value as a bare number.

q: # get_value(readout='cell count', item= c1cc2c(cc1C1OC[C@H]3C(c4ccc5c(c4)OCO5)OC[C@H]13)OCO2 (stereo partly drawn) )
a: 8900

q: # get_value(readout='cell count', item= CCN1C[C@]2(C)CC[C@H](O)[C@]34C1[C@H](C[C@H]23)[C@@]1(O)C[C@H](OC)[C@H]2C[C@@H]4[C@@H]1C2O (stereo partly drawn) )
a: 9000

q: # get_value(readout='cell count', item= `Cc1nc(N)sc1CCN` )
a: 8020
